The measurements presented in this section are drawn from patent US6649639B2.

- Tested on: HI-HeLa cells
- Protocol Summary: Cytotoxicity (CC50) in mock-infected HI-HeLa cells, antirhinoviral assay
- Format: cell-based
- Reported Conditions: line of HRV serotype 89
Assay Endpoint: CC50

**Q:** Please report CC50 for the following compound: CCOC(=O)/C=C/C(CCC(N)=O)NC(=O)C(CC(=O)C(NC(=O)SC1CCCC1)C(C)C)Cc1ccccc1 (stereo not shown) [Compound 7]
**A:** > 10 µM

* * *

- Test system: HI-HeLa cells
- Protocol Summary: Cytotoxicity (CC50) in mock-infected HI-HeLa cells, antirhinoviral assay
- Type: cell-based
- Reported Conditions: line of HRV serotype 2
Field: CC50. Provide a value for each of the compounds that follow.

**Q:** Please report CC50 for the following compound: `CCOC(=O)/C=C/[C@H](CCC(N)=O)NC(=O)[C@@H](CC(=O)[C@@H](NC(=O)SCC)C(C)C)Cc1ccc(C)cc1`
**A:** > 1 µM

**Q:** Please report CC50 for the following compound: CCOC(=O)/C=C/C(CCC(N)=O)NC(=O)C(CC(=O)C(NC(=O)SC1CCCC1)C(C)C)Cc1ccccc1 (centres unmarked)
**A:** > 10 µM

**Q:** Please report CC50 for the following compound: `CCOC(=O)/C=C/[C@H](CCC(N)=O)NC(=O)[C@@H](CC(=O)[C@H](CC(C)C)NC(=O)SCC)Cc1ccccc1`
**A:** > 320 µM

**Q:** Please report CC50 for the following compound: `CCOC(=O)/C=C/[C@H](CCC(N)=O)NC(=O)[C@@H](CC(=O)[C@@H](NC(=O)SCC)C(C)C)Cc1ccccc1`
**A:** > 320 µM

**Q:** Please report CC50 for the following compound: CCOC(=O)/C=C/C(CCC(N)=O)NC(=O)C(CC(=O)C(NC(=O)SC1CCCC1)C(C)C)Cc1ccc(C)cc1 (centres unmarked)
**A:** > 3 µM

* * *

Field: CC50. Provide a value for each of the molecules that follow.
- System: HI-HeLa cells
- Protocol Summary: Cytotoxicity (CC50) in mock-infected HI-HeLa cells, antirhinoviral assay
- Type: cell-based
- Reported Conditions: line of HRV serotype-14

**Q:** Please report CC50 for the following molecule: CCOC(=O)/C=C/C(CCC(N)=O)NC(=O)C(CC(=O)C(NC(=O)SC1CCCC1)C(C)C)Cc1ccc(C)cc1 (stereo not drawn)
**A:** > 3 µM

**Q:** Please report CC50 for the following molecule: `CCOC(=O)/C=C/[C@H](CCC(N)=O)NC(=O)[C@@H](CC(=O)[C@@H](NC(=O)SCC)C(C)C)Cc1ccccc1`
**A:** > 320 µM

**Q:** Please report CC50 for the following molecule: CCOC(=O)/C=C/C(CCC(N)=O)NC(=O)C(CC(=O)C(CC(C)C)NC(=O)SCc1ccccc1)Cc1ccccc1 (stereo not drawn)
**A:** > 100 µM

* * *

- Test system: HRV serotype 10
- Protocol Summary: Antirhinoviral HI-HeLa Cell Culture Assay (XTT cell protection), HRV serotype 10
- Type: cell-based, human rhinovirus
- Reported Conditions: HRV serotype 10, HI-HeLa cells
pEC50: −log10 of the molar value.
// label = 1 (yes) if pEC50 is not less than 6, otherwise 0 (no)

**Q:** API: above_or_equal(metric=pEC50, cutoff=6) for item CCOC(=O)/C=C/C(CCC(N)=O)NC(=O)C(CC(=O)C(NC(=O)SC1CCCC1)C(C)C)Cc1ccccc1 (stereo not drawn) [Compound 7]
**A:** 1 (yes)

**Q:** API: above_or_equal(metric=pEC50, cutoff=6) for item CCOC(=O)C=CC(CCC(N)=O)NC(=O)C(CC(=O)C(NC(=O)SC(C)(C)C)C(C)C)Cc1ccc(F)cc1 (stereo not drawn) [Compound 26]
**A:** 1 (yes)

**Q:** API: above_or_equal(metric=pEC50, cutoff=6) for item CC(C)C(NC(=O)SC1CCCC1)C(=O)CC(Cc1ccc(F)cc1)C(=O)NC(C=CC(=O)OCCO)CCC(N)=O (stereo not drawn) [Compound 33]
**A:** 0 (no)

**Q:** API: above_or_equal(metric=pEC50, cutoff=6) for item CCOC(=O)C=CC(CCC(N)=O)NC(=O)C(CC(=O)C(NC(=O)C1SCCS1)C(C)C)Cc1ccc(F)cc1 (stereo not drawn) [Compound 27]
**A:** 0 (no)

**Q:** API: above_or_equal(metric=pEC50, cutoff=6) for item CC(C)C(NC(=O)SC(C)(C)C)C(=O)CC(Cc1ccc(F)cc1)C(=O)NC(C=CC(=O)OCc1cccnc1)CCC(N)=O (stereo not drawn) [Compound 32]
**A:** 0 (no)

**Q:** API: above_or_equal(metric=pEC50, cutoff=6) for item CCOC(=O)C=CC(CCC(N)=O)NC(=O)C(CC(=O)C(NC(=O)C1SCCCS1)C(C)C)Cc1ccc(F)cc1 (stereo not drawn) [Compound 31]
**A:** 0 (no)

**Q:** API: above_or_equal(metric=pEC50, cutoff=6) for item CCOC(=O)/C=C/C(CCC(N)=O)NC(=O)C(CC(=O)C(NC(=O)SC1CCCC1)C(C)C)Cc1ccc(C)cc1 (stereo not drawn) [Compound 11]
**A:** 1 (yes)

**Q:** API: above_or_equal(metric=pEC50, cutoff=6) for item CCOC(=O)C=CC(CCC(N)=O)NC(=O)C(CC(=O)C(NC(=O)c1cc(C)on1)C(C)C)Cc1ccc(F)cc1 (stereo not drawn) [Compound 34]
**A:** 1 (yes)
